Cited source: ChEMBL document CHEMBL5678801

measurementDescription: Volume of distribution at steady state in Sprague-Dawley rat measured upto 24 hrs by […] analysis
Type: ADME
assaySetup: in vivo, read-out: Vdss
readout: Vd (L/kg)
Record the value in L/kg, omitting the unit from your answer.

May I ask what Vd has been recorded for Cc1ccc(-c2ccc3c(ccc4sc5c(c43)NC[C@@H](C)NC5=O)n2)cn1 ?
1.5
